Assay: Compound cytotoxicity, XTT-based colorimetric assay
Type: cell-based
Conditions: human, uninfected MT2 cells, day 4, XTT
Procedure: Compound cytotoxicity and the corresponding CC50 values were determined using the same protocol as described in the antiviral assay except that uninfected cells were used. Cytotoxicity was assessed on day 4 in uninfected MT2 cells by using a XTT (2,3-bis[2-Methoxy-4-nitro-5-sulfophenyl]-2H-tetrazolium-5-carboxyanilide inner salt)-based colorimetric assay (Sigma-Aldrich, St Louis, Mo.).
EXPERIMENTAL READOUT: CC50 at 4 days

COc1ccc(N(C)C(=O)[C@H](Cc2ccccc2)NC(=O)NS(=O)(=O)Nc2cccc(C(N)=O)c2)cc1 [JB-61] :: > 100 µM
COc1ccc(N(C)C(=O)[C@H](Cc2ccccc2)NC(=O)NS(=O)(=O)Nc2ccc(Oc3ccccc3)cc2)cc1 [CA-18] :: > 33.3 µM
CN(C(=O)[C@H](Cc1cc(F)cc(F)c1)NC(=O)NS(=O)(=O)N1CCC[C@H]1CO)c1ccc2scnc2c1 [CA-131] :: > 100 µM
Cc1ncc(N(C)C(=O)[C@H](Cc2cc(F)cc(F)c2)NC(=O)NS(=O)(=O)N2CCc3cccnc32)cn1 [GW-14] :: > 100 µM
CN(C(=O)[C@H](Cc1cc(F)cc(F)c1)NC(=O)NS(=O)(=O)N1CCc2ccccc21)c1ccc2scnc2c1 [ZY-8] :: 88 µM
CN(C(=O)[C@H](Cc1cc(F)cc(F)c1)NC(=O)NS(=O)(=O)n1ncc2cc(F)ccc21)c1ccc2scnc2c1 [ZY-20] :: > 100 µM
COc1ccc(N(C)C(=O)[C@H](Cc2ccccc2)NC(=O)NS(=O)(=O)Nc2ccccc2C(N)=O)cc1 [CA-22] :: > 100 µM
CN(C(=O)[C@H](Cc1cc(F)cc(F)c1)NC(=O)NS(=O)(=O)NCc1cccnc1)c1ccc2scnc2c1 [CA-135] :: > 100 µM
COc1ccc(N(C)C(=O)[C@H](Cc2ccccc2)NC(=O)NS(=O)(=O)Nc2cccc(C(C)(C)C)c2)cc1 [CA-41] :: > 33.3 µM
COc1ccc(N(C)C(=O)[C@H](Cc2ccccc2)NC(=O)NS(=O)(=O)N(C)c2ccc(Cl)cc2)cc1 [JB-35] :: > 100 µM
COc1ccc(N(C)C(=O)[C@H](Cc2ccccc2)NC(=O)NS(=O)(=O)Nc2cccc3ncccc23)cc1 [CA-8] :: > 100 µM
COc1ccc(N(C)C(=O)[C@H](Cc2ccccc2)NC(=O)NS(=O)(=O)Nc2cccc(NS(C)(=O)=O)c2)cc1 [CA-46] :: > 100 µM
CN(C(=O)[C@H](Cc1cc(F)cc(F)c1)NC(=O)NS(=O)(=O)N1CCCCC1)c1ccc2scnc2c1 [VN-24] :: > 100 µM
COc1ccc(N(C)C(=O)[C@H](Cc2ccccc2)NC(=O)NS(=O)(=O)Nc2ccc(Cc3ccncc3)cc2)cc1 [CA-39] :: > 100 µM
COc1ccc(N(C)C(=O)[C@H](Cc2ccccc2)NC(=O)NS(=O)(=O)Nc2ccccc2OC)cc1 [JB-16] :: > 100 µM
CN(C(=O)[C@H](Cc1cc(F)cc(F)c1)NC(=O)NS(=O)(=O)N(C)c1cccnc1)c1ccc2scnc2c1 [CA-120] :: > 100 µM
COC(=O)Nc1ccc(NS(=O)(=O)NC(=O)N[C@@H](Cc2ccccc2)C(=O)N(C)c2ccc(OC)cc2)cc1 [JB-62] :: > 100 µM
CC(=O)N1CCN(S(=O)(=O)NC(=O)N[C@@H](Cc2cc(F)cc(F)c2)C(=O)N(C)c2ccc3scnc3c2)CC1 [CA-148] :: > 100 µM
COc1ccc(N(C)C(=O)[C@H](Cc2ccccc2)NC(=O)NS(=O)(=O)N(C)c2cccc(Cl)c2)cc1 [JB-37] :: > 100 µM
Cc1cc(F)cc(N(C)C(=O)[C@H](Cc2cc(F)cc(F)c2)NC(=O)NS(=O)(=O)N2CCc3cccnc32)c1 [BB-13] :: 89.5 µM
CCCc1ccc(N(C)C(=O)[C@H](Cc2cc(F)cc(F)c2)NC(=O)NS(=O)(=O)N2CCc3cccnc32)cc1 [BB-11] :: 66.3 µM
COc1ccc(N(C)C(=O)[C@H](Cc2ccccc2)NC(=O)NS(=O)(=O)N(C)c2cccc(C)c2)cc1 [JB-25] :: > 100 µM
Cc1cc(N(C)C(=O)[C@H](Cc2cc(F)cc(F)c2)NC(=O)NS(=O)(=O)N2CCc3cccnc32)ccc1C#N [BB-15] :: > 100 µM
COc1ccc(N(C)C(=O)[C@H](Cc2ccccc2)NC(=O)NS(=O)(=O)Nc2ccccc2C)cc1 [JB-17] :: > 100 µM
COc1ccc(N(C)C(=O)[C@H](Cc2ccccc2)NC(=O)NS(=O)(=O)Nc2cccnc2)cc1 [JB-21] :: > 100 µM
COc1ccc(N(C)C(=O)[C@H](Cc2ccccc2)NC(=O)NS(=O)(=O)Nc2ccc(C#N)cc2)cc1 [CA-15] :: > 100 µM
COc1ccc(N(C)C(=O)[C@H](Cc2ccccc2)NC(=O)NS(=O)(=O)N(C)c2ccccc2C)cc1 [JB-18] :: > 100 µM
COc1ccc(N(C)C(=O)[C@H](Cc2ccccc2)NC(=O)NS(=O)(=O)NCC(=O)N2CCCC2)cc1 [CA-51] :: > 100 µM
